positive rate reference
# study.target: T1, human DLL4 on 293T-hDLL4 cells (human, UniProt Q9NR61 27-685)
# T1 construct: whole, on cells; also called 293T-DLL4; HEK293T-hDLL4
# T1 sequence (Q9NR61 27-685): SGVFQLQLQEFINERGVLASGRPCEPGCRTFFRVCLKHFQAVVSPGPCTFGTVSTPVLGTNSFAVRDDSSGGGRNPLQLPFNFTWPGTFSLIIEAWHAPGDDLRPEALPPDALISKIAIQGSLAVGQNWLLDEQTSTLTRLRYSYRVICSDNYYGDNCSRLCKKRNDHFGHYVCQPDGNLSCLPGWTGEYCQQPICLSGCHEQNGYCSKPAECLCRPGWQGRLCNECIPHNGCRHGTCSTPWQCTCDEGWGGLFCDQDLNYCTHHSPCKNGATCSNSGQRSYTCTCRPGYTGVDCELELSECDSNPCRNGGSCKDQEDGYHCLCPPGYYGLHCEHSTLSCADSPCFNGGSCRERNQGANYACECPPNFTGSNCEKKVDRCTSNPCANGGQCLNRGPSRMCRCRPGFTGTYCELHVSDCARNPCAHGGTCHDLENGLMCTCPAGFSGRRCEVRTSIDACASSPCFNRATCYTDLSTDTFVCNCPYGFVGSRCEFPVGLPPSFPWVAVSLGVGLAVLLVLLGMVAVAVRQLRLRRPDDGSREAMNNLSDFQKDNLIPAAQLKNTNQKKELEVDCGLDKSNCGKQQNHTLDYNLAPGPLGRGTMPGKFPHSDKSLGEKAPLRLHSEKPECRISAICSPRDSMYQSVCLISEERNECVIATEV
# method: flow cytometry on 293T-hDLL4 cells, antibody 20 µg/mL
Provide the reading as a plain figure in %.

Recorded positive rate, per entry:
>>> assay_value("murine antibody 59B10D3 (antibody, V domains shown, Murine antibody purified from hybridoma supernatant) VH: EVKLEESGGGLVQPGGSMKLSCAASGFTFSDAWMDWVRQSPEKGLEWIAEIRNKANNHATYYTESVKGRFTISRDDSKSSVYLQMISLRPEDTGIYYCTRNNYGSTWTYYAMDYWGQGTSVTVSS VL: DIQMTQTSSSLSASLGDRVTINCRASQDISNYLNWYQQKPDGTVKLLIYYTSRLHSGVPSRFSGSGSGTDYSLTISNLEHEDIATYFCQQGYTLPLTFGAGTNLELK")
0.67
>>> assay_value("murine antibody 55C11E4 (antibody, V domains shown, Murine antibody purified from hybridoma supernatant) VH: EVQLQQSGPVLVKPGASVKMSCKASGYTFTDYYMNWVKQSHGKSLEWIGVINPYNGGTNYSQKFKGKATLTVDKSSSTAYMELNSLTSEDSAVYYCARDSNYVGLLDYWGQGTSVTVSS VL: DIVLTQSPATLSVTPGDSVSLSCRASQSISNNLHWYQQKSHESPRLLIKYASQSISGIPSRFSGSGSGPDFTLSIDSVETEDFGVYFCQQSNSWPYTFGGGTKLEIK")
0.1
>>> assay_value("murine antibody 6F11C10 (antibody, V domains shown, Murine antibody purified from hybridoma supernatant) VH: EVHLQQSGPVLVKPGPSVKISCKASGFTFTDYYMHWVKQSHGKSLEWIGLVYPYNGDISYNQKFKGKATLTVDTSSSTAYMELNSLTSEDSAVYYCARQGNYVNNAIDYWGQGTSVTVSS VL: DIVMTQSQKFMSTSVGDRVSISCKASQNVGNIIAWYQQKPGQSPKALIYLASYRYSGVPDRFTGSGSGTDFTLTINNVQSEDLAEYFCQQYSDSPYTFGSGTKLEI")
0.76

query: Look at this binder and give its reported positive rate. murine antibody 87F7F10 (antibody, V domains shown, Murine antibody purified from hybridoma supernatant) VH: DVQLQESGPGLVKPSQSLSLTCSVTGYSITSDFYWNWIRQFPGNKLEWMGYITYDGSTNYDPSLKNRISITRDTSKNQFFLKLNSVTAEDTATYYCVYGDFNRHAMDYWGQGTSVTVSS VL: DIVMSQSPSSLAVSAGEKVTMSCRSSQSLFNSRTRKNYLAWYQQKPGQPPKVLIYWASTRESGVPDRFTGSGSGTDFTLTISSVQAEDLAVYYCEQSFYLFTFGTGTKLEI
result: 0.42

Data origin, for the record: patent US20260166168A1
